Could you please report measured pKd for the items listed next?
Molecular target: T1, integrin αvβ3, purified from human placenta (human, UniProt P06756 31-1048; P05106 27-788)
T1 construct: mature; Native heterodimer, immobilized on ELISA plates or on the BIAcore chip; biotinylated in capture lift and capture ELISA screens; also called αvβ3 receptor; vitronectin receptor
T1 sequence (P06756 31-1048, form in doubt, chain 1 of 2): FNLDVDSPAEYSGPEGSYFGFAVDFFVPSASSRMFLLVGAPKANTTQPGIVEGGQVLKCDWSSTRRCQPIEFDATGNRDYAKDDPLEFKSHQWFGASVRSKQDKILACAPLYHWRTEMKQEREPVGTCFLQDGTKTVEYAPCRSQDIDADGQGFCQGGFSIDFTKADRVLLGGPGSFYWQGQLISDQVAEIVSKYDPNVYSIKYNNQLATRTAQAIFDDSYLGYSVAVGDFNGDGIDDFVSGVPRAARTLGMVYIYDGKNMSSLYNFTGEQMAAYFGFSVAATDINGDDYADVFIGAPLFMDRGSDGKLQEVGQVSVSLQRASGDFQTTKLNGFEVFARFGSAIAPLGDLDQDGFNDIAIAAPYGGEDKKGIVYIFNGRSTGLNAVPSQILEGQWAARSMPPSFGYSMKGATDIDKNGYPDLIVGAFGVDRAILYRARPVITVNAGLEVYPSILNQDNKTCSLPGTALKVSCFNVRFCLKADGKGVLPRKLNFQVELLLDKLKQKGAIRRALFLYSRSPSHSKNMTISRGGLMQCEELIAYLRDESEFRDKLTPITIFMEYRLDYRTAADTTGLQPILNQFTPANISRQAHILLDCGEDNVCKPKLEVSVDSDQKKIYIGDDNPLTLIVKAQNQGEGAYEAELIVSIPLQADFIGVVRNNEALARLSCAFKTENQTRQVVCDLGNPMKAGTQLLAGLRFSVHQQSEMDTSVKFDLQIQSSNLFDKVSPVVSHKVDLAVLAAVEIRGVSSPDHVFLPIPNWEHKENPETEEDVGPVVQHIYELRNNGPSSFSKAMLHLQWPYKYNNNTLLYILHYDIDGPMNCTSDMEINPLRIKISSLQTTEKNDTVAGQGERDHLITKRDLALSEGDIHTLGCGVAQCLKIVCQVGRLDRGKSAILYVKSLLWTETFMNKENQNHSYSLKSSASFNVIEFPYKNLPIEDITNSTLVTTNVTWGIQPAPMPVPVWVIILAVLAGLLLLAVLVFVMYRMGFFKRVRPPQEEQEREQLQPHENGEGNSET
T1 sequence (P05106 27-788, form in doubt, chain 2 of 2): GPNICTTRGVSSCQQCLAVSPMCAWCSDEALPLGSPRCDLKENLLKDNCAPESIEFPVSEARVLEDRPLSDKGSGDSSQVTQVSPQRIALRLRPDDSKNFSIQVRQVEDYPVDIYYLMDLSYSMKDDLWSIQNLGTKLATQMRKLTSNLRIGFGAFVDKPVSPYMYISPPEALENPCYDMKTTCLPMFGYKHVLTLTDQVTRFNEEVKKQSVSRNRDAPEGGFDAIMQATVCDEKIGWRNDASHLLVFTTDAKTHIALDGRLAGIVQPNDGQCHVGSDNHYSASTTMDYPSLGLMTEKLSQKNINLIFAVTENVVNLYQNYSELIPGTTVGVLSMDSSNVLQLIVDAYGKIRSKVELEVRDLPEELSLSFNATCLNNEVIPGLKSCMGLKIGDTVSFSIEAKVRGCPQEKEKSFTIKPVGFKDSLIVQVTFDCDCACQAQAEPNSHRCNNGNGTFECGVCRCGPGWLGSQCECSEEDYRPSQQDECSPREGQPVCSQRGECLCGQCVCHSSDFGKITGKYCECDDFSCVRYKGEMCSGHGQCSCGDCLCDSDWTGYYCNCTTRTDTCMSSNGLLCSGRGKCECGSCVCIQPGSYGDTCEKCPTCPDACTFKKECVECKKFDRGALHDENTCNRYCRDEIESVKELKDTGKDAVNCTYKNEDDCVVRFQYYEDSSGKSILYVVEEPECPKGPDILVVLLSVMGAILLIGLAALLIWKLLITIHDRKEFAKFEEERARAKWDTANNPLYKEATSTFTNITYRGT
Assay: SPR (BIAcore), purified Fab over immobilized αvβ3
The scale used: pKd is minus the common logarithm of the concentration in molar units.

Report pKd for LM609 grafted antibody combinatorial clone C59 (Fab, V domains shown, Fab) VH: QVQLVESGGGVVQPGRSLRLSCAASGFTFSSYDMSWVRQAPGKGLEWVAKVSSGGGSTYYPDTVQGRFTISRDNSKNTLYLQMNSLRAEDTAVYYCARHNYGSFADWGQGTTVTVSS VL: EIVLTQSPATLSLSPGERATLSCQASQSISNFLHWYQQRPGQAPRLLIRYRSQSISGIPARFSGSGSGTDFTLTISSLEPEDFAVYYCQQSGSWPHTFGGGTKVEIK please.
9.30

And what about the binder LM609 grafted antibody combinatorial clone 56 (Fab, V domains shown, Fab) VH: QVQLVESGGGVVQPGRSLRLSCAASGFTFSSYDMSWVRQAPGKGLEWVAKVSSGGGSTYYPDTVQGRFTISRDNSKNTLYLQMNSLRAEDTAVYYCARHNYGSFASWGQGTTVTVSS VL: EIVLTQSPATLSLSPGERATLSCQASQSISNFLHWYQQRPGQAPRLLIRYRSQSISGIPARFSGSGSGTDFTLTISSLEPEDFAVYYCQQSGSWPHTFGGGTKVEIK ?
9.30

Entry LM609 grafted antibody Fab (Fab, V domains shown, Fab expressed from M13 phage vector, human kappa chain, peptide tag on the carboxyl-terminus of the heavy chain; also called LM609 grafted Fab; parent LM609 grafted antibody) VH: QVQLVESGGGVVQPGRSLRLSCAASGFTFSSYDMSWVRQAPGKGLEWVAKVSSGGGSTYYLDTVQGRFTISRDNSKNTLYLQMNSLRAEDTAVYYCARHNYGSFAYWGQGTTVTVSS VL: EIVLTQSPATLSLSPGERATLSCQASQSISNHLHWYQQRPGQAPRLLIRYRSQSISGIPARFSGSGSGTDFTLTISSLEPEDFAVYYCQQSGSWPHTFGGGTKVEIK please
7.56

Next binder: LM609 grafted antibody combinatorial clone C29 (Fab, V domains shown, Fab) VH: QVQLVESGGGVVQPGRSLRLSCAASGFTFSSYDMSWVRQAPGKGLEWVAKVSSGGGSTYYPDTVQGRFTISRDNSKNTLYLQMNSLRAEDTAVYYCARHNHGSFYSWGQGTTVTVSS VL: EIVLTQSPATLSLSPGERATLSCQASQSISNHLHWYQQRPGQAPRLLIRYRSQSISGIPARFSGSGSGTDFTLTISSLEPEDFAVYYCQQSGSWPLTFGGGTKVEIK
9.30

Try LM609 grafted antibody combinatorial clone 17 (Fab, V domains shown, Fab) VH: QVQLVESGGGVVQPGRSLRLSCAASGFTFSSYDMSWVRQAPGKGLEWVAKVSSGGGSTYYLDTVQGRFTISRDNSKNTLYLQMNSLRAEDTAVYYCARHNYGSFASWGQGTTVTVSS VL: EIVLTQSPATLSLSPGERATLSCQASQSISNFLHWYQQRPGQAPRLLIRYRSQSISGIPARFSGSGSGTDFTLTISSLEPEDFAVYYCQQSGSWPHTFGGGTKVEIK next.
9.30
